Below are AC50 values recorded for Cytochrome P450 3A4 (Homo sapiens, UniProt P08684).

COc1ccc(Oc2ncc3nc(CCc4ccccc4)c(=O)n(C)c3n2)cc1 = 7.94 µM (inconclusive)
O=S(=O)(c1ccc(F)cc1)N1CCCC(CO)C1 (centres undefined) = 25.1 µM (inconclusive)
CCc1cc2c(c(CC)n1)CCC(=O)N2Cc1ccc(-c2ccccc2-c2nnn[nH]2)cc1 = 20 µM (inconclusive)
CCN(CC)S(=O)(=O)c1ccc(OC)c(NC(=O)CSc2ccccc2)c1 = 31.6 µM (inconclusive)
Cc1nc2ncnn2c(C)c1CCC(=O)NCc1ccco1 = 10 µM (inconclusive)

Query: Give Cytochrome P450 3A4 (Homo sapiens, UniProt P08684) AC50 for the following compound: `Cc1onc(-c2c(Cl)cccc2Cl)c1C(=O)Nc1ccc2c(c1)OCO2`
Response: 1 µM (inconclusive)

###

Tested on: INS1
measurement_protocol: INS-1E survival protection against cytokine death – cell-based, luminescence, retest, dose response (AID 449756);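 further: cell death triggered by IL-1 beta plus TNF-alpha plus IFN-gamma mixture; protective hits raise ATP signal compared with cytokine alone wells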
Format: functional
assay_conditions: Rattus norvegicus
The source made the active and inactive calls.
measurement_type: AC50

Query: Provide measured AC50 value, entry: `Cc1ccc(/C=N/NC(=O)Cc2ccc(Cl)cc2)c(O)c1`
Response: 3.76 µM (active)

Query: Provide measured AC50 value, entry: `Cc1ccc(OCCN2CCN(c3ncnc4sc(C)c(C)c34)CC2)cc1`
Response: 2.36 µM (active)

Query: Provide measured AC50 value, entry: `Cc1nc(C(F)(F)F)c(C(=O)NN=C(N)c2ccccn2)s1`
Response: 5.45 µM (active)

Query: Provide measured AC50 value, entry: `Cc1ccc(O)c(/C=N/NC(=O)c2[nH]ncc2Br)c1`
Response: 33.5 µM (active)

###

measurement_protocol: Luminescence Cell-Based Dose Confirmation HTS to Identify Inhibitors of Platelet Dense Granule Release. [Related pubchem assays: 1663 (Primary HTS), 1678 (Summary of Project)]
Format: functional
The source made the active and inactive calls.
measurement_type: EC50

c1ccc(-c2nc3c(ccc4ccccc43)[nH]2)nc1 = 27.1 µM (active)
Cc1nc2sccn2c(=O)c1S(=O)(=O)N1CCN(c2ccc(F)cc2)CC1 = > 112 µM (not active)
O=c1c2ccccc2nc(/C=C/c2ccc(F)cc2)n1-c1ccccn1 = > 112 µM (not active)

Query: Provide measured EC50 value, entry: `Cc1onc(-c2c(Cl)cccc2Cl)c1C(=O)N1CCc2ccccc2C1`
Response: > 112 µM (not active)

Query: Provide measured EC50 value, entry: `O=S(=O)(NCCc1csc(-c2cccnc2)n1)c1ccc2c(c1)OCCO2`
Response: > 112 µM (not active)

Query: Provide measured EC50 value, entry: `O=C(NCc1ccncc1)/C(=C/c1cccc([N+](=O)[O-])c1)NC(=O)c1ccccc1`
Response: > 112 µM (not active)

###

target_or_system: UniProt P10520
Sequence (P10520 whole entry): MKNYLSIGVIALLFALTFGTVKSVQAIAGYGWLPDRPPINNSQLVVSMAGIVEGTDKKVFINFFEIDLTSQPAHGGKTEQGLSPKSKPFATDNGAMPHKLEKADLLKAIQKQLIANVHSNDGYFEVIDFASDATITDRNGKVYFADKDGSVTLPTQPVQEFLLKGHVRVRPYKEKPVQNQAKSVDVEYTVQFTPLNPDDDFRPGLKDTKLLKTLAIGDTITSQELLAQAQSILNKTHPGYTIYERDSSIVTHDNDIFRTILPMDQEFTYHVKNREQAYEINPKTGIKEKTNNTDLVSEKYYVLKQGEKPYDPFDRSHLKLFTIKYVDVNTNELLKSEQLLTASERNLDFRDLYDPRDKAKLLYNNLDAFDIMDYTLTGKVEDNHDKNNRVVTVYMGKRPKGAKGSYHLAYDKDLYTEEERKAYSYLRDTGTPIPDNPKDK
measurement_protocol: viability-normalized secreted streptokinase activity reduction – plasminogen activation absorbance, OD405, dose response (AID 1914);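 further: secreted streptokinase activity via plasminogen activation per viability signal from cell pellet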
Format: functional, Streptococcus pyogenes M1 GAS
Activity calls are given as the source filed them.
Overview of recorded EC50 for various compounds

Look over these answered cases.
CCC(C)Sc1cccc(-c2nc3ccc(C)cn3c2NCc2ccccc2)c1 (stereo unspecified) = 4.26 µM (active)
Oc1ccc(Cl)cc1-c1cc(-c2cccc(Br)c2)[nH]n1 = > 150 µM (not active)
CC(C)Sc1cc(N2CCCC2)nc(-c2ccccc2)n1 = 11.2 µM (active)
COc1ccccc1-c1nnc(NC(=O)CCS(=O)(=O)c2ccccc2)o1 = > 150 µM (not active)

Query: Provide measured EC50 value, entry: `COc1cccc(-c2nn(C)c3sc(C(=O)Nc4ccc5c(c4)OCCO5)cc23)c1`
Response: > 150 µM (not active)

Query: Provide measured EC50 value, entry: `Cc1cccc(CS(=O)(=O)c2nnc([C@H](Cc3ccccc3)NC(=O)OC(C)(C)C)o2)c1`
Response: 1.5 µM (active)
